Exercise: for every item that follows, state its recorded inhibition at 10 µM.
- TARGET_OR_TEST_SYSTEM: HRI (Homo sapiens, UniProt Q9BQI3)
- Construct: purchased Reaction Biology Corporation (Malvern, PA)
- Sequence (Q9BQI3 whole entry): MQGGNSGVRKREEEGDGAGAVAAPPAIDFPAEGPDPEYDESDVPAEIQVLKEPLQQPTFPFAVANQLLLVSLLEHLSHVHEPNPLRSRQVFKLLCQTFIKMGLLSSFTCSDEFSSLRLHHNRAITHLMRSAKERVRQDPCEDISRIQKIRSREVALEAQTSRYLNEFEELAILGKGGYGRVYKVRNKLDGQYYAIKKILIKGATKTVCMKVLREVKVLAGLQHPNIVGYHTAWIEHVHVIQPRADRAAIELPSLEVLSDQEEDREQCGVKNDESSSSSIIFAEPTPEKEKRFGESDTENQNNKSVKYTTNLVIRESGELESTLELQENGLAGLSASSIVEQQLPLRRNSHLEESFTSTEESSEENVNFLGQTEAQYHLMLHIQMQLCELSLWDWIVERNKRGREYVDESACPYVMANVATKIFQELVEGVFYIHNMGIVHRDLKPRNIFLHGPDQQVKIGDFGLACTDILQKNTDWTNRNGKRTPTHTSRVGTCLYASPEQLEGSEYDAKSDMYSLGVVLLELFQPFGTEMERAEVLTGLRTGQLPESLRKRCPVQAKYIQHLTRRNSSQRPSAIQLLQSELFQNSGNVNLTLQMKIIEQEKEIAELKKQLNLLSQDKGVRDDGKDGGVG
- RUN_DESCRIPTION: radiometric HotSpot kinase assay
- Assay type: biochemical
- CONDITIONS: 10 μM compound, 10 μM ATP; read-out: % Enzyme inhibition at 10 μM, HRI

For each of the compounds below, state inhibition at 10 µM.
1. Fc1cc(-n2nnc3cnc(Nc4cnn(C5CCOCC5)c4)nc32)ccc1Cl
2. COC(=O)c1ccc(-n2nnc3cnc(Nc4cnn(C5CCOCC5)c4)nc32)cc1
3. CCOc1ccc(-n2nnc3cnc(Nc4cnn(CC)c4)nc32)cc1
4. CCn1cc(Nc2ncc3nnn(-c4ccc(C(=O)OC)cc4)c3n2)cn1
5. O[C@H]1CC[C@H](n2cc(Nc3ncc4nnn(-c5ccc(Cl)c(F)c5)c4n3)cn2)CC1
6. COC(=O)c1ccc(-n2nnc3cnc(Nc4cnn([C@H]5CC[C@H](O)CC5)c4)nc32)cc1

["< 10%", "< 10%", "< 10%", "14%", "< 10%", "< 10%"]

* * *

- TARGET_OR_TEST_SYSTEM: IRE1 (Homo sapiens)
- Construct: purchased Reaction Biology Corporation (Malvern, PA)
- Sequence (O75460 19-977): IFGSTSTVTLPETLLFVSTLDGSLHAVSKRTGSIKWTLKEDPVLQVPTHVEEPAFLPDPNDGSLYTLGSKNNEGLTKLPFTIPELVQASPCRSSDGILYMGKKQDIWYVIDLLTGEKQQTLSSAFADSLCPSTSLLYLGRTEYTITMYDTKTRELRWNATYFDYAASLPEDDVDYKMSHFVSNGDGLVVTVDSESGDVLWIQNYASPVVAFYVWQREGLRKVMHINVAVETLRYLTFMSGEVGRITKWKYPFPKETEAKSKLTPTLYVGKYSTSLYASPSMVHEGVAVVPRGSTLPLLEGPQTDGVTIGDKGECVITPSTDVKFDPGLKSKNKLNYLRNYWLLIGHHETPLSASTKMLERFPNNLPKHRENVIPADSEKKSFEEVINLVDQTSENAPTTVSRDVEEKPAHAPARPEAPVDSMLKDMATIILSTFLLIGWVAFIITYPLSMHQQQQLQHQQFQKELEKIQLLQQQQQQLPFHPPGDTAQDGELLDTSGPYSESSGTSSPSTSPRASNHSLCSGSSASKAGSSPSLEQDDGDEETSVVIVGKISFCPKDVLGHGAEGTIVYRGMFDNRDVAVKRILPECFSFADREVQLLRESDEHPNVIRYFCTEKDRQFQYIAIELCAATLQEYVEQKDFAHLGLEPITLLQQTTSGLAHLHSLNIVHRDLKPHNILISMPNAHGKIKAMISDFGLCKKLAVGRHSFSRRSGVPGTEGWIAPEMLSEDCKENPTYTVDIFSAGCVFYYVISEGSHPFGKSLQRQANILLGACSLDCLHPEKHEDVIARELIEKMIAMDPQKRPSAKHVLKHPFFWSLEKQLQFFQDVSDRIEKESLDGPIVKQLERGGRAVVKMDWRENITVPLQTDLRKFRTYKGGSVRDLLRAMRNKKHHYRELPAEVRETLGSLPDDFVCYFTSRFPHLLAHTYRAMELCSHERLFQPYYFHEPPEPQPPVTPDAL
- RUN_DESCRIPTION: radiometric HotSpot kinase assay
- Format: biochemical
- CONDITIONS: 10 μM compound, 10 μM ATP; read-out: % Enzyme inhibition at 10 μM, IRE1
Give measured inhibition at 10 µM for each item. Keep answers brief.
Numbers only, in %.

CCOc1ccc(-n2nnc3cnc(Nc4cnn(CC)c4)nc32)cc1 20
O[C@H]1CC[C@H](n2cc(Nc3ncc4nnn(-c5ccc(Cl)c(F)c5)c4n3)cn2)CC1 15

// batch mode: one inhibition at 10 µM value per listed entry
1. CCn1cc(Nc2ncc3nnn(-c4ccc(C(=O)OC)cc4)c3n2)cn1
2. COC(=O)c1ccc(-n2nnc3cnc(Nc4cnn(C5CCOCC5)c4)nc32)cc1
3. COC(=O)c1ccc(-n2nnc3cnc(Nc4cnn([C@H]5CC[C@H](O)CC5)c4)nc32)cc1
4. Fc1cc(-n2nnc3cnc(Nc4cnn(C5CCOCC5)c4)nc32)ccc1Cl

1: 37; 2: 22; 3: 24; 4: 18

* * *

These compounds were tested on UniProt P19525; IC50 is the recorded read-out.
Sequence (P19525 whole entry): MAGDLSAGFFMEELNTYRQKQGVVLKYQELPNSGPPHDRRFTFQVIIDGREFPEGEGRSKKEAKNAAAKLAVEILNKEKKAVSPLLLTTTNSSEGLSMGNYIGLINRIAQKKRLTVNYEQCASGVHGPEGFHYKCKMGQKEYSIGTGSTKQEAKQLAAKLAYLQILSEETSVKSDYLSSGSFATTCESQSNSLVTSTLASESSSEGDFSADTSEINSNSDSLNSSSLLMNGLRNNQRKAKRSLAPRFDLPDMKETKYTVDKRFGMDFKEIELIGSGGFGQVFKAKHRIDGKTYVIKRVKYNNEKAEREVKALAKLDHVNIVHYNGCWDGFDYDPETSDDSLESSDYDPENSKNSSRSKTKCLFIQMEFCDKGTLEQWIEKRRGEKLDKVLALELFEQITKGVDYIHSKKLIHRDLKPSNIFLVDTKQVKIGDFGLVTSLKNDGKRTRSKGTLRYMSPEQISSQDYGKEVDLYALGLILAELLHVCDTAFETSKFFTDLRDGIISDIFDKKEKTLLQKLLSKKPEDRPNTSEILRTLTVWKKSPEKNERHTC
Numbers only, in nM.

COMPOUND	IC50 (nM)
CCOc1ccc(-n2nnc3cnc(Nc4cnn(CC)c4)nc32)cc1 [Compound 2]	39.9

// IC50 lookup, key: CCn1cc(Nc2ncc3nnn(-c4ccc(C(=O)OC)cc4)c3n2)cn1 [Compound 1]
119
